# Test system: bacteria
# ASSAY_REMARKS: disc diffusion test (method of Bauer et al.), antibacterial potency relative to thienamycin
# Type: cell-based
# CONDITIONS: Meth-R S. aureus; ratio to thienamycin (= 1.0) of geometrical average MIC, larger value = higher activity
# Protocol: The antibacterial activities of the compounds of the present invention described in the Examples, as representative examples of the compound of the present invention, were measured by a disc diffusion test by the method of Bauer et al. (Amer. J. Clin. Pathol., vol. 45, p. 493 (1966)). Thienamycin or imipenem was used as the internal standard. […]
Provide the reported Relative antibacterial potency to thienamycin of each item.
Answers are plain numbers.

Here are 4 molecules together with their reported answers.
MOLECULE: CNC/C(C)=C\[C@@H]1C[C@H](SC2=C(C(=O)O)N3C(=O)[C@H]([C@@H](C)O)[C@H]3[C@H]2C)CN1.Cl
ASSAY_VALUE: 19.7
//
MOLECULE: C[C@@H](O)[C@H]1C(=O)N2C(C(=O)O)=C(S[C@@H]3CN[C@H](/C=C\CN)C3)[C@H](C)[C@H]12
ASSAY_VALUE: 12.9
//
MOLECULE: C/C(=C/[C@@H]1C[C@H](SC2=C(C(=O)O)N3C(=O)[C@H]([C@@H](C)O)[C@H]3[C@H]2C)CN1)CN.Cl
ASSAY_VALUE: 13.5
//
MOLECULE: C[C@@H](O)[C@H]1C(=O)N2C(C(=O)O)=C(SCCN=CN)C[C@H]12 [imipenem, monohydrate, reference compound]
ASSAY_VALUE: 2.57

// below: Relative antibacterial potency to thienamycin requested for another molecule
Input C[C@@H](O)[C@H]1C(=O)N2C(C(=O)O)=C(S[C@@H]3CN[C@H](/C=C/C(N)=O)C3)[C@H](C)[C@H]12 [BO-2171, reference compound] , output reported Relative antibacterial potency to thienamycin.
7.68
